Data credit: patent US10752588B2

- system-name: human D2R/β-arrestin (Homo sapiens (Human))
- Sequence (P14416 whole entry): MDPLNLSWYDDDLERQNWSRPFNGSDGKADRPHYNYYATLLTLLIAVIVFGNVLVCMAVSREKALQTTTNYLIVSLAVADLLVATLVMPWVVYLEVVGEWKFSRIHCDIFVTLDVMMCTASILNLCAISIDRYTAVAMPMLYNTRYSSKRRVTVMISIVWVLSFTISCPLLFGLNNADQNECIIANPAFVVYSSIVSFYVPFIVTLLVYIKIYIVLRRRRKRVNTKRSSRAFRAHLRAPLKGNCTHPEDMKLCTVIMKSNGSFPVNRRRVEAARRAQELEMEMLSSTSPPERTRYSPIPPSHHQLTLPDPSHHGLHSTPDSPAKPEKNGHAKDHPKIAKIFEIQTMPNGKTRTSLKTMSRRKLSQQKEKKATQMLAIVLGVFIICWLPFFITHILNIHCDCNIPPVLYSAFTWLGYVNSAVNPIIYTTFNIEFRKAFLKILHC
- test-parameters: read-out: cAMP Antagonist
pIC50: −log10 of the molar value.
readout-name: pIC50

{"molecule": "COc1cccc(C(NC(=O)C2CCN(CCOc3ccccc3F)CC2)c2ccccn2)c1 (single isomer, unassigned) [Compound 22a]", "system-name": "human D2R/β-arrestin (Homo sapiens (Human))", "result": "6.00 to 7.00"}
{"molecule": "O=C(NC(c1ccc(Cl)cc1)c1ccccn1)C1CCN(CCn2ccc(=O)cc2)CC1 (single isomer, unassigned) [Compound 11a]", "system-name": "human D2R/β-arrestin (Homo sapiens (Human))", "result": "5.00 to 6.00"}
{"molecule": "COc1cccc(C(NC(=O)C2CCN(CCOc3ccccc3F)CC2)c2ccccn2)c1 (single isomer, unassigned) [Compound 22b]", "system-name": "human D2R/β-arrestin (Homo sapiens (Human))", "result": "6.00 to 7.00"}
{"molecule": "O=C(NC(c1ccc(Cl)cc1)c1ccccc1F)C1CCN(CCOc2ccccc2F)CC1 (single isomer, unassigned) [Compound 96a]", "system-name": "human D2R/β-arrestin (Homo sapiens (Human))", "result": "< 4.52"}
{"molecule": "O=C(NC(c1ccc(Cl)cc1)c1ccccn1)C1CCN(CCn2ccc(=O)cc2)CC1 (single isomer, unassigned) [Compound 11b]", "system-name": "human D2R/β-arrestin (Homo sapiens (Human))", "result": "< 4.52"}
{"molecule": "O=C(NC(c1ccc(Cl)cc1)c1ccccn1)C1CCN(CCOc2ccccc2C(F)(F)F)CC1 (single isomer, unassigned) [Compound 6b]", "system-name": "human D2R/β-arrestin (Homo sapiens (Human))", "result": "> 7.00"}
{"molecule": "O=C(NC(c1ccc(F)cc1)c1ccccn1)C1CCN(CCOc2ccccc2C(F)(F)F)CC1 (single isomer, unassigned) [Compound 52a]", "system-name": "human D2R/β-arrestin (Homo sapiens (Human))", "result": "> 7.00"}
{"molecule": "O=C(NC(c1ccc(F)cc1)c1ccccn1)C1CCN(CCOc2ccccc2C(F)(F)F)CC1 (single isomer, unassigned) [Compound 52b]", "system-name": "human D2R/β-arrestin (Homo sapiens (Human))", "result": "6.00 to 7.00"}
{"molecule": "O=C(NC(c1ccc(F)cc1)c1ccccn1)C1CCN(CCOc2ccccc2Cl)CC1 (single isomer, unassigned) [Compound 53a]", "system-name": "human D2R/β-arrestin (Homo sapiens (Human))", "result": "6.00 to 7.00"}
{"molecule": "O=C(NC(c1ccc2c(c1)OC(F)(F)O2)c1ccccn1)C1CCN(CCOc2ccccc2)CC1 (single isomer, unassigned) [Compound 119b]", "system-name": "human D2R/β-arrestin (Homo sapiens (Human))", "result": "< 4.52"}
{"molecule": "O=C(NC(c1ccc(Cl)cc1)c1ccccn1)C1CCN(CCOc2cc(F)ccc2F)CC1 (single isomer, unassigned) [Compound 14b]", "system-name": "human D2R/β-arrestin (Homo sapiens (Human))", "result": "5.00 to 6.00"}
{"molecule": "O=C(NC(c1ccc(Cl)cc1)c1ccccc1F)C1CCN(CCOc2ccccc2F)CC1 (single isomer, unassigned) [Compound 96b]", "system-name": "human D2R/β-arrestin (Homo sapiens (Human))", "result": "6.00 to 7.00"}
{"molecule": "O=C(NC(c1ccc(Cl)cc1)c1ccccn1)C1CCN(CCOc2cccc(F)c2)CC1 (single isomer, unassigned) [Compound 4b]", "system-name": "human D2R/β-arrestin (Homo sapiens (Human))", "result": "6.00 to 7.00"}
